# credit: ChEMBL document CHEMBL3763096

system: HaCaT; assay: Cytotoxicity against human HaCaT cells assessed as LDH level at 2 uM incubated for 4 hrs; format: cell-based
Each item that follows carries a reported Activity.
Respond numerically; units are mU/ml and should not be typed.

Observe how each entry below is paired with its result.
line_notation=CCN(CC)C(=O)c1cc2c(s1)C(=O)c1c(Cl)cccc1C2=O recorded_number=112
line_notation=CCNC(=O)c1cc2c(s1)C(=O)c1c(Cl)cccc1C2=O recorded_number=109
line_notation=CC(=O)c1cc2c(s1)C(=O)c1c(Cl)cccc1C2=O recorded_number=124
line_notation=CC(=O)c1cc2c(s1)C(=O)c1c(O)cccc1C2=O recorded_number=319
line_notation=O=C(Nc1ccccc1)c1cc2c(s1)C(=O)c1c(Cl)cccc1C2=O recorded_number=121
line_notation=O=C(c1cccs1)c1cc2c(s1)C(=O)c1c(Cl)cccc1C2=O recorded_number=127
line_notation=CC(=O)c1cc2c(s1)C(=O)c1c(Br)cccc1C2=O recorded_number=116
line_notation=O=C1c2cc(-c3nnn[nH]3)sc2C(=O)c2c(Cl)cccc21 recorded_number=95
line_notation=O=C(c1cccnc1)c1cc2c(s1)C(=O)c1c(Cl)cccc1C2=O recorded_number=125
line_notation=O=C(Oc1ccccc1)c1cc2c(s1)C(=O)c1c(Cl)cccc1C2=O recorded_number=97

Tell me the measured Activity of `COC(=O)c1cc2c(s1)C(=O)c1c(Cl)cccc1C2=O` , please.
130

Tell me the measured Activity of `O=Cc1cc2c(s1)C(=O)c1c(Cl)cccc1C2=O` , please.
107

Tell me the measured Activity of `CCOC(=O)c1cc2c(s1)C(=O)c1c(Cl)cccc1C2=O` , please.
97

Tell me the measured Activity of `CC(=O)c1cc2c(s1)C(=O)c1ccccc1C2=O` , please.
253

Tell me the measured Activity of `CCC(=O)c1cc2c(s1)C(=O)c1c(Cl)cccc1C2=O` , please.
116

Tell me the measured Activity of `CCOC(=O)c1cc2c(s1)C(=O)c1c(Br)cccc1C2=O` , please.
121

Tell me the measured Activity of `O=C(c1cccs1)c1cc2c(s1)C(=O)c1c(Br)cccc1C2=O` , please.
107

Tell me the measured Activity of `O=C(c1ccccc1)c1cc2c(s1)C(=O)c1c(Cl)cccc1C2=O` , please.
122

Tell me the measured Activity of `O=C(O)c1cc2c(s1)C(=O)c1c(Cl)cccc1C2=O` , please.
112

Tell me the measured Activity of `O=C(O)c1cc2c(s1)C(=O)c1c(Br)cccc1C2=O` , please.
108

Tell me the measured Activity of `COC(=O)c1cc2c(s1)C(=O)c1c(Br)cccc1C2=O` , please.
124

Tell me the measured Activity of `CCC(=O)c1cc2c(s1)C(=O)c1c(Br)cccc1C2=O` , please.
113

Tell me the measured Activity of `O=C(c1ccccc1)c1cc2c(s1)C(=O)c1c(Br)cccc1C2=O` , please.
121

Tell me the measured Activity of `CCc1noc(-c2cc3c(s2)C(=O)c2c(Cl)cccc2C3=O)n1` , please.
121
